- subject of test: HCV NS3 helicase NS3h_1b(con1) (Hepatitis C virus genotype 1b)
- Construct: truncated C-terminally His-tagged NS3 proteins lacking the N-terminal protease, called NS3h; His-tag (C); made in house
- protocol: biochemical
- Format: biochemical, hepatitis C virus genotype 1b(con1)
- experimental setup: genotype 1b (con1); read-out: Target Potency MBHA (IC50 avg., μM) 1b (con1)
outcome measure: IC50

Example cases with answers are listed next.
- molecule: "Cc1ccc(NC(=O)Nc2ccc(-c3nc4ccc(-c5nc6ccc(C)c(S(=O)(=O)O)c6s5)cc4s3)cc2)cc1 [Compound 28]"
  observed: "5.3 µM"
- molecule: "Cc1ccc2nc(-c3ccc(NC(=O)c4ccc(NC(=S)Nc5ccccc5)cc4)cc3)sc2c1S(=O)(=O)O.N [Compound 43]"
  observed: "29 µM"
- molecule: "Cc1ccc2nc(-c3ccc4nc(-c5ccc(NCc6ccccc6)cc5)sc4c3)sc2c1S(=O)(=O)O [Compound 53]"
  observed: "11 µM"

Q. Record request: IC50 value, item Cc1ccc2nc(-c3ccc(NC(=O)c4ccc(NC(=O)c5ccccc5)cc4)cc3)sc2c1S(=O)(=O)O.N [Compound 40]
A. 81.4 µM

---

- subject of test: HCV NS3 helicase NS3h_1b(con1) (Hepatitis C virus genotype 1b, UniProt Q9WMX2)
- Construct: truncated C-terminally His-tagged NS3 proteins lacking the N-terminal protease, called NS3h; His-tag (C); made in house
- Sequence (Q9WMX2 1192-1657): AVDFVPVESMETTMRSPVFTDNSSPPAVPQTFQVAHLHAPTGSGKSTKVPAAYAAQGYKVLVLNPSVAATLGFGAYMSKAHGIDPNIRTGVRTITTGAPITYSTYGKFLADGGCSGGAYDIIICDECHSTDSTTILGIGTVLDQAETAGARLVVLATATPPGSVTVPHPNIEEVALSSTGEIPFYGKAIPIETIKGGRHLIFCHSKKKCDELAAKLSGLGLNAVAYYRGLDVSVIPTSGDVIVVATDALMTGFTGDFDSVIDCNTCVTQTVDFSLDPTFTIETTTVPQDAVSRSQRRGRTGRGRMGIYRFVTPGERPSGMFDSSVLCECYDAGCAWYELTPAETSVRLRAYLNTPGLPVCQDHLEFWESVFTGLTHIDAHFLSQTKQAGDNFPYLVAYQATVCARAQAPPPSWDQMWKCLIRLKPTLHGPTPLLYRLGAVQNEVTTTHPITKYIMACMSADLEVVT
- protocol: biochemical
- Type: biochemical, hepatitis C virus genotype 1b(con1)
- experimental setup: standard HCV helicase MBHA (Table 9); read-out: DNA Unwinding IC50
IC50 values for the molecules below.
Use µM as the unit, but write only the number.

- smiles record: "Cc1ccc2nc(-c3ccc(NC(=O)c4ccc(NC(=O)OCC5c6ccccc6-c6ccccc65)cc4)cc3)sc2c1S(=O)(=O)O.N"
  outcome measure: "IC50"
  unit string: "µM"
  observed: 12

Q. What does the record list as IC50 for Cc1ccc2nc(-c3ccc4nc(-c5ccc(NC(=O)c6ccc7nc(-c8ccc(NC(=O)OCC9c%10ccccc%10-c%10ccccc%109)cc8)sc7c6)cc5)sc4c3)sc2c1S(=O)(=O)O.N ?
A. 4

Q. What does the data say about its IC50? Entry: Cc1cc2sc(-c3ccc4nc(-c5ccc(N)cc5)sc4c3)nc2cc1S(=O)(=O)O
A. 7

Q. Any idea what IC50 was measured for Cc1ccc2nc(-c3ccc4nc(-c5ccc(NC(=O)c6c(F)cccc6C(F)(F)F)cc5)sc4c3)sc2c1S(=O)(=O)O ?
A. 17

---

Parameter IC50: see the listing below.
- subject of test: NS3h_DV2 (Dengue virus type 2, UniProt P29990)
- Construct: made in house
- Sequence (P29990 1646-2093): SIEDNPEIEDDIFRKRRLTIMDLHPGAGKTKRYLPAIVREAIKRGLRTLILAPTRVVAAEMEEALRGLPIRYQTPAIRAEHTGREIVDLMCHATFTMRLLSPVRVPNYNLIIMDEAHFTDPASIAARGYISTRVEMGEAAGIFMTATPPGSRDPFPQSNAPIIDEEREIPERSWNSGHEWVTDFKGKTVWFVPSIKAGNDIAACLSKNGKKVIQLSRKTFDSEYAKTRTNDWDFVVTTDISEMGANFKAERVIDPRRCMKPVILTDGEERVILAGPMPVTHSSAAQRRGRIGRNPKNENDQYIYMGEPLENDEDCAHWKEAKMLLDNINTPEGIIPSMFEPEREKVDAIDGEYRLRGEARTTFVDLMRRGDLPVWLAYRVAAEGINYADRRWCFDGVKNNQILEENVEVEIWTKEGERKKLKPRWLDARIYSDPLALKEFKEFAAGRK
- protocol: RNA-stimulated ATP hydrolysis, pH 7.5, Dengue
- Assay type: biochemical
- experimental setup: 10 μM poly(U) RNA, read-out: ATPase w/RNA NS3h_DV2 IC50 (μM) ± SD
Kindly answer with a numeric value in µM, unit omitted.

Q. # get_value(readout= IC50, system= NS3h_DV2 (Dengue virus type 2, UniProt P29990)) for Cc1ccc2nc(-c3ccc4nc(-c5ccc(NC(=O)c6ccc7ccccc7c6)cc5)sc4c3)sc2c1S(=O)(=O)O
A. 3

Q. What is its IC50 for NS3h_DV2 (Dengue virus type 2, UniProt P29990)? Entry: Cc1ccc2nc(-c3ccc4nc(-c5ccc(NC(=O)c6ccc(N)cc6)cc5)sc4c3)sc2c1S(=O)(=O)O
A. 12

Q. Notebook: pull reported IC50 for NS3h_DV2 (Dengue virus type 2, UniProt P29990), entry Cc1ccc2nc(-c3ccc4nc(-c5ccc(NC(=O)c6cc(C(F)(F)F)ccc6F)cc5)sc4c3)sc2c1S(=O)(=O)O
A. 7

Q. Form entry - test system: NS3h_DV2 (Dengue virus type 2, UniProt P29990); read-out: IC50; molecule: Cc1ccc2nc(-c3ccc4nc(-c5ccc6nc(-c7ccc8nc(-c9ccc(N)cc9)sc8c7)sc6c5)sc4c3)sc2c1S(=O)(=O)O
A. 0.94

Q. Hi! What's the reported IC50 for Cc1ccc2nc(-c3ccc4nc(-c5ccc(NC(=O)c6ccc(Br)cc6)cc5)sc4c3)sc2c1S(=O)(=O)O on NS3h_DV2 (Dengue virus type 2, UniProt P29990)?
A. 3

---

# maps each entry to its Inh. (%) (Inhibition)
- subject of test: HCV NS3 helicase NS3h_1b(con1) (Hepatitis C virus genotype 1b, UniProt Q9WMX2)
- Construct: truncated C-terminally His-tagged NS3 proteins lacking the N-terminal protease, called NS3h; His-tag (C); made in house
- protocol: MBHA screen of NCI mechanistic set library at 20 μM (percent inhibition, compound interference)
- Assay type: biochemical
- experimental setup: compounds at 20 μM, MBHA with DNA substrate; calculated from Equation 1
Give the quantity in %, number only.

Q. Could you share which Inh. (%) (Inhibition) value was measured for CC/C(=C(\c1ccccc1)c1ccc(OCCN(C)C)cc1)c1ccccc1.O=C(O)CC(O)(CC(=O)O)C(=O)O ?
A. 13.5

Q. Record request: Inh. (%) (Inhibition) value, item CCN1/C(=C\C(C)=C\c2sc3ccccc3[n+]2CC)Sc2ccccc21.[I-]
A. 38.8

Q. Recorded Inh. (%) (Inhibition) for COc1cc2cc3c4cc(OC)c(OC)cc4cc[n+]3c(C)c2cc1OC.O=C(O)CS(=O)(=O)[O-] , please?
A. 79.4

---

- subject of test: HCV NS3 helicase NS3h_1b(con1) (Hepatitis C virus genotype 1b)
- Construct: truncated C-terminally His-tagged NS3 proteins lacking the N-terminal protease, called NS3h; His-tag (C); made in house
- protocol: MBHA screen of NCI mechanistic set library at 20 μM (percent inhibition, compound interference)
- Format: biochemical
- experimental setup: compounds at 20 μM, MBHA with a DNA substrate; calculated from Equation 1
- Description: All molecular beacon-based helicase assays (MBHAs) were performed according to known methods (Belon & Frick (2008) supra; Belon & Frick (2009) supra). […] Fluorescence was read before ATP (F0) addition and 30 minutes after ATP was added to 1 mM (F30) using a Tecan Infinite M200 fluorescence microplate reader with excitation and emission wavelengths set to 643 and 670 nm, respectively. […]
Measured Inh. (%) (Inhibition), listed per entry.
API: value field is a number in %; no unit string.

// solved cases for Inh. (%) (Inhibition) follow
- compound: "C=C(C)C(=O)OC1CCC2(C)C(CCC3C2CCC2(C)C(c4ccc(=O)oc4)CC4OC432)C1 (stereo not shown) [Compound 267712]"
  Inh. (%) (Inhibition): "−22.8"
- compound: "Nc1nc(N)c(N=Nc2ccccc2)c(=O)[nH]1 [Compound 5200]"
  Inh. (%) (Inhibition): 7.0
- compound: "CCCCOCc1cc(CN2CCN(C)CC2)c(O)c2ncccc12 [Compound 20514]"
  Inh. (%) (Inhibition): "−19.2"

API: the following record is the query input.
Q. Can you look up the measured Inh. (%) (Inhibition) of COc1ccc(/C=C/c2cc(O)cc(O[C@@H]3O[C@H](CO)[C@@H](O)[C@H](O)[C@H]3O)c2)cc1O [Compound 43321] for me?
A. −28.3

---

- subject of test: E. coli SSB-Cy5-dT15 complex (Escherichia coli)
- Construct: purchased Promega
- Sequence (P0AGE0 2-178, one chain of several): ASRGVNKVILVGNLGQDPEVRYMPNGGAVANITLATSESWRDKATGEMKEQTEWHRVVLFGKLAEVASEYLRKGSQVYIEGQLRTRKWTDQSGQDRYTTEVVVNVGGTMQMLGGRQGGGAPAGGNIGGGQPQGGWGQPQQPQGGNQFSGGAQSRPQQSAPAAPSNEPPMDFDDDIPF
- protocol: Escherichia coli SSB Cy5-dT15 binding assay (fluorescence polarization)
- experimental setup: disruption of Cy5-dT15-SSB complex; read-out: Cy5-dT15-SSB Binding IC50
outcome measure: IC50 (µM)
Numeric only. Scale: µM

- smiles record: "Cc1ccc2nc(-c3ccc4nc(-c5ccc(N(C)C(=O)c6ccc7ccccc7c6)cc5)sc4c3)sc2c1S(=O)(=O)O"
  unit string: "µM"
  observed: 9
- smiles record: "CC(=O)Nc1ccc(-c2nc3ccc(-c4nc5ccc(C)c(S(=O)(=O)O)c5s4)cc3s2)cc1"
  unit string: "µM"
  observed: 17

Q. Provide value of IC50 for this record tested with E. coli SSB-Cy5-dT15 complex (Escherichia coli): COC(=O)c1ccc(C(=O)Nc2ccc(-c3nc4ccc(-c5nc6ccc(C)c(S(=O)(=O)O)c6s5)cc4s3)cc2)cc1
A. 1

Q. GET /values?readout=IC50&system=E. coli SSB-Cy5-dT15 complex (Escherichia coli)&item= Cc1ccc(NC(=O)Nc2ccc(-c3nc4ccc(-c5nc6ccc(C)c(S(=O)(=O)O)c6s5)cc4s3)cc2)cc1
A. 10

Q. Quick check: IC50 on E. coli SSB-Cy5-dT15 complex (Escherichia coli), item Cc1ccc2nc(-c3ccc(NC(=O)c4ccc(NC(=O)OCC5c6ccccc6-c6ccccc65)cc4)cc3)sc2c1S(=O)(=O)O.N ?
A. 27

---

- subject of test: HCV NS3 helicase NS3h_1b(con1) (Hepatitis C virus genotype 1b, UniProt Q9WMX2)
- Construct: truncated C-terminally His-tagged NS3 proteins lacking the N-terminal protease, called NS3h; His-tag (C); made in house
- protocol: MBHA screen of NCI mechanistic set library at 20 μM (percent inhibition, compound interference)
- Assay type: biochemical
- experimental setup: compounds at 20 μM, MBHA with DNA substrate; assay interference calculated with Equation 2
outcome measure: Int.* (Ratio) (Interference)
Just the number in Ratio, nothing appended.

As a guide, the following entries are already answered.
- compound: "[O-][S+]1c2ccccc2N=C(c2cccc3ccccc23)CC1c1cccc2ccccc12 (stereo not shown)"
  subject of test: "HCV NS3 helicase NS3h_1b(con1) (Hepatitis C virus genotype 1b, UniProt Q9WMX2)"
  Int.* (Ratio) (Interference): 0.92
- compound: "N#CCCN(CCC#N)c1ccc(/C=C2/N=C(c3cc([N+](=O)[O-])ccc3Cl)OC2=O)cc1"
  subject of test: "HCV NS3 helicase NS3h_1b(con1) (Hepatitis C virus genotype 1b, UniProt Q9WMX2)"
  Int.* (Ratio) (Interference): 0.97
- compound: "C=C1C(=O)OCC2C(C(=O)O)=CC3C(C)C(C)=CC123 (stereo not shown)"
  subject of test: "HCV NS3 helicase NS3h_1b(con1) (Hepatitis C virus genotype 1b, UniProt Q9WMX2)"
  Int.* (Ratio) (Interference): 1.12

Q. HCV NS3 helicase NS3h_1b(con1) (Hepatitis C virus genotype 1b, UniProt Q9WMX2) / Int.* (Ratio) (Interference) / CCOC(=O)C(C)NC(=O)N(C)C12CC3CC(CC(C3)C1)C2 (stereo not shown) : value?
A. 1.10

Q. Return Int.* (Ratio) (Interference) measured with HCV NS3 helicase NS3h_1b(con1) (Hepatitis C virus genotype 1b, UniProt Q9WMX2) given this compound: Cn1ncc2cc3c(Nc4ccc(Cl)cc4)cccc3nc21
A. 0.92

Q. Missing value: Int.* (Ratio) (Interference), HCV NS3 helicase NS3h_1b(con1) (Hepatitis C virus genotype 1b, UniProt Q9WMX2), entry CN(C)c1ccc(/C=C2\Cc3ccccc3C2=O)cc1Br . Fill in?
A. 1.09
